Let's look at some molecules and their measured IC50.
- SYSTEM: human Arginine Vasopressin Receptor 1a (AVPR1a) (Homo sapiens, UniProt P37288)
- Sequence (P37288 whole entry): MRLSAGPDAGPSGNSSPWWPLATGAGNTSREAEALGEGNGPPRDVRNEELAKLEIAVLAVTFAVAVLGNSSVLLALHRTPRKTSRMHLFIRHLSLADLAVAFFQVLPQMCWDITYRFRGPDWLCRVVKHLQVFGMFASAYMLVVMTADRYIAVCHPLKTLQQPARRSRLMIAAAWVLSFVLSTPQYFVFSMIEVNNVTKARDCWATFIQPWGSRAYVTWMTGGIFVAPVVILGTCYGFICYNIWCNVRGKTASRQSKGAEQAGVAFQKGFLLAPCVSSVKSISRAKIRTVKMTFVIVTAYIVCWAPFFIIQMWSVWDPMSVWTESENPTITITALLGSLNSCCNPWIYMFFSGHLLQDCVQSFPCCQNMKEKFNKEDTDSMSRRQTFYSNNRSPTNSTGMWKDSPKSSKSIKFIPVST
- EXPERIMENT_SUMMARY: Vasopressin V1a receptor antagonist assay (FLIPR calcium, CHO-AVPR1a cells)

MOLECULE	IC50
O=C(N1CC2(C1)CN(c1cc(F)ccn1)C2)N1CCOc2cc(Cl)ccc21 [1-70]	< 100 nM
CC1COc2cc(F)c(F)cc2N1C(=O)N1CC2(C1)CN(c1cccnn1)C2 (single isomer, unassigned) [19-3-B]	< 100 nM
Cn1cc(N2CC3(CN(C(=O)N4CCOc5cc(Cl)ccc54)C3)C2)cn1 [1-11]	≥ 1000 nM
CC1COc2cc(Cl)ccc2N1C(=O)N1CC2(C1)CN(c1cnccn1)C2 (centres unmarked) [1-58]	< 100 nM
O=C(N1CC2(C1)CN(c1cnc(Br)cn1)C2)N1CCOc2cc(Cl)ccc21 [1-19]	< 100 nM
O=C(N1CC2(C1)CN(c1ccc(F)c(F)n1)C2)N1CCOc2cc(Cl)ccc21 [1-49]	< 100 nM
O=C(N1CC2(C1)CN(c1ccc(OC(F)F)cn1)C2)N1CCOc2cc(Cl)ccc21 [1-12]	≥ 1000 nM
Cc1nccnc1N1CC2(CN(C(=O)N3c4ccc(Cl)cc4OCC3C)C2)C1 (single isomer, unassigned) [20-10-A]	< 100 nM
Cc1cc(N2CC3(CN(C(=O)N4c5ccc(Cl)cc5OCC4C)C3)C2)ncn1 (centres unmarked) [21-11]	< 100 nM
CC1COc2cc(Cl)ccc2N1C(=O)N1CC2(C1)CN(c1cc(=O)n(C)cn1)C2 (single isomer, unassigned) [20-14-B]	< 100 nM
O=C(N1CC2(C1)CN(c1cnccn1)C2)N1CCC(O)c2cc(Cl)ccc21 (single isomer, unassigned) [13-3-B]	< 100 nM
O=C(N1CC2(C1)CN(c1ncccc1F)C2)N1CCc2cc(Cl)ccc21 [1-76]	< 100 nM
Cc1cnnc(N2CC3(CN(C(=O)N4c5ccc(Cl)cc5OCC4C)C3)C2)c1 (centres unmarked) [21-4]	< 100 nM
O=C(N1CC2(C1)CN(c1cnccn1)C2)N1CCc2cc(Cl)ccc21 [8-14]	< 100 nM
O=C(N1CC2(C1)CN(c1nccn3cncc13)C2)N1CCOc2cc(Cl)ccc21 [1-44]	< 100 nM
CC1COc2cc(Cl)ccc2N1C(=O)N1CC2(C1)CN(c1cccnc1)C2 (single isomer, unassigned) [20-1-B]	< 100 nM
O=C(N1CC2(C1)CN(c1cccnn1)C2)N1CCOc2cc(Cl)c(F)cc21 [1-81]	< 100 nM

* * *

Listed next: entries and their corresponding IC50.
- SYSTEM: human Arginine Vasopressin Receptor V2 (AVPR2) (Homo sapiens, UniProt P30518)
- Sequence (P30518 whole entry): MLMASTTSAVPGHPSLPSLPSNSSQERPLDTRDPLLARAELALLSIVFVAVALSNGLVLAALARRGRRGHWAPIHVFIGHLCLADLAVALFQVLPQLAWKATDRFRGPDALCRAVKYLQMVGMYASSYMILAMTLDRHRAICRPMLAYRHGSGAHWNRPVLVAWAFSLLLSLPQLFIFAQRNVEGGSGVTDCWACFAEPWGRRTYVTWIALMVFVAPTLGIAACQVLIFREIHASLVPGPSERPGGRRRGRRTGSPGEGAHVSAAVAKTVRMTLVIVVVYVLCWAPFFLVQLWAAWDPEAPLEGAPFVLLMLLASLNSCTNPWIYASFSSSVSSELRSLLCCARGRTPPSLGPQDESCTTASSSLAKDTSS
- EXPERIMENT_SUMMARY: Vasopressin V2 receptor antagonist assay (TR-FRET cAMP, 1321N1 cells)

COMPOUND	SYSTEM	IC50
CC1COc2cc(Cl)ccc2N1C(=O)N1CC2(C1)CN(c1ncccc1C#N)C2 (stereo not drawn)	human Arginine Vasopressin Receptor V2 (AVPR2) (Homo sapiens, UniProt P30518)	≥ 1000 nM
CC1COc2cc(F)c(F)cc2N1C(=O)N1CC2(C1)CN(c1ccc(F)cn1)C2 (stereo not drawn) [19-5]	human Arginine Vasopressin Receptor V2 (AVPR2) (Homo sapiens, UniProt P30518)	< 100 nM
CC1COc2cc(Cl)ccc2N1C(=O)N1CC2(C1)CN(c1cccnc1)C2 (stereo not drawn) [20-1]	human Arginine Vasopressin Receptor V2 (AVPR2) (Homo sapiens, UniProt P30518)	≥ 1000 nM
CC1COc2cc(F)ccc2N1C(=O)N1CC2(C1)CN(c1ccccn1)C2 (single isomer, unassigned)	human Arginine Vasopressin Receptor V2 (AVPR2) (Homo sapiens, UniProt P30518)	500 to 1000 nM
CC1COc2cc(Cl)ccc2N1C(=O)N1CC2(C1)CN(c1cccnn1)C2 (single isomer, unassigned) [9-1-A]	human Arginine Vasopressin Receptor V2 (AVPR2) (Homo sapiens, UniProt P30518)	≥ 1000 nM
Cc1nccnc1N1CC2(CN(C(=O)N3c4ccc(Cl)cc4OCC3C)C2)C1 (single isomer, unassigned) [20-10-A]	human Arginine Vasopressin Receptor V2 (AVPR2) (Homo sapiens, UniProt P30518)	100 to 500 nM
CC1COc2cc(Cl)c(F)cc2N1C(=O)N1CC2(C1)CN(c1cccnn1)C2 (stereo not drawn) [19-4]	human Arginine Vasopressin Receptor V2 (AVPR2) (Homo sapiens, UniProt P30518)	≥ 1000 nM
CC1COc2cc(Cl)ccc2N1C(=O)N1CC2(C1)CN(c1ccccn1)C2 (single isomer, unassigned) [1-60-B]	human Arginine Vasopressin Receptor V2 (AVPR2) (Homo sapiens, UniProt P30518)	< 100 nM
CC1COc2cc(Cl)c(F)cc2N1C(=O)N1CC2(C1)CN(c1ncccn1)C2 (stereo not drawn) [19-2]	human Arginine Vasopressin Receptor V2 (AVPR2) (Homo sapiens, UniProt P30518)	≥ 1000 nM
Cc1cccnc1N1CC2(CN(C(=O)N3CCOc4cc(Cl)ccc43)C2)C1	human Arginine Vasopressin Receptor V2 (AVPR2) (Homo sapiens, UniProt P30518)	≥ 1000 nM
CC1CN(C(=O)N2CC3(C2)CN(c2ccc(F)cn2)C3)c2ccc(Cl)cc2O1 (stereo not drawn) [9-3]	human Arginine Vasopressin Receptor V2 (AVPR2) (Homo sapiens, UniProt P30518)	≥ 1000 nM
O=C(N1CC2(C1)CN(c1ccccn1)C2)N1CCC(O)c2cc(Cl)ccc21 (single isomer, unassigned) [13-2-B]	human Arginine Vasopressin Receptor V2 (AVPR2) (Homo sapiens, UniProt P30518)	≥ 1000 nM
CCC1COc2cc(Cl)ccc2N1C(=O)N1CC2(C1)CN(c1ccc(F)cn1)C2 (single isomer, unassigned)	human Arginine Vasopressin Receptor V2 (AVPR2) (Homo sapiens, UniProt P30518)	< 100 nM
O=C(N1CC2(C1)CN(c1ccc(F)cn1)C2)N1CCOc2cc(F)c(F)cc21	human Arginine Vasopressin Receptor V2 (AVPR2) (Homo sapiens, UniProt P30518)	≥ 1000 nM
CC1COc2cc(Cl)ccc2N1C(=O)N1CC2(C1)CN(c1ncc(F)cn1)C2 (single isomer, unassigned)	human Arginine Vasopressin Receptor V2 (AVPR2) (Homo sapiens, UniProt P30518)	100 to 500 nM
O=C(N1CC2(C1)CN(c1ccccn1)C2)N1CCOc2cc(Cl)ccc21	human Arginine Vasopressin Receptor V2 (AVPR2) (Homo sapiens, UniProt P30518)	≥ 1000 nM
CC1COc2cc(Cl)ccc2N1C(=O)N1CC2(C1)CN(c1ccncn1)C2 (stereo not drawn)	human Arginine Vasopressin Receptor V2 (AVPR2) (Homo sapiens, UniProt P30518)	≥ 1000 nM
O=C(N1CC2(C1)CN(c1ccccn1)C2)N1CCOCc2cc(Cl)ccc21	human Arginine Vasopressin Receptor V2 (AVPR2) (Homo sapiens, UniProt P30518)	≥ 1000 nM
Cc1cnc(N2CC3(CN(C(=O)N4c5ccc(Cl)cc5OCC4C)C3)C2)nc1 (stereo not drawn) [20-13]	human Arginine Vasopressin Receptor V2 (AVPR2) (Homo sapiens, UniProt P30518)	100 to 500 nM
O=C(N1CC2(C1)CN(c1cccnn1)C2)N1CCOc2cc(Cl)ccc21	human Arginine Vasopressin Receptor V2 (AVPR2) (Homo sapiens, UniProt P30518)	≥ 1000 nM
O=C(N1CC2(C1)CN(c1cc(F)cc(F)n1)C2)N1CCOc2cc(Cl)ccc21	human Arginine Vasopressin Receptor V2 (AVPR2) (Homo sapiens, UniProt P30518)	≥ 1000 nM
CC1COc2cc(Cl)ccc2N1C(=O)N1CC2(C1)CN(c1ccc(F)cn1)C2 (single isomer, unassigned) [1-73-A]	human Arginine Vasopressin Receptor V2 (AVPR2) (Homo sapiens, UniProt P30518)	≥ 1000 nM
CC1COc2cc(F)ccc2N1C(=O)N1CC2(C1)CN(c1ccc(F)cn1)C2 (single isomer, unassigned) [12-1-B]	human Arginine Vasopressin Receptor V2 (AVPR2) (Homo sapiens, UniProt P30518)	100 to 500 nM
O=C(N1CC2(C1)CN(c1ncccc1F)C2)N1CCc2cc(Cl)ccc21	human Arginine Vasopressin Receptor V2 (AVPR2) (Homo sapiens, UniProt P30518)	≥ 1000 nM
Cc1ccnc(N2CC3(CN(C(=O)N4c5ccc(F)cc5OCC4C)C3)C2)c1 (single isomer, unassigned)	human Arginine Vasopressin Receptor V2 (AVPR2) (Homo sapiens, UniProt P30518)	< 100 nM
CC1COc2cc(Cl)ccc2N1C(=O)N1CC2(C1)CN(c1ncncc1F)C2 (stereo not drawn)	human Arginine Vasopressin Receptor V2 (AVPR2) (Homo sapiens, UniProt P30518)	100 to 500 nM
O=C(N1CC2(C1)CN(c1cccc(F)n1)C2)N1CCc2cc(Cl)ccc21	human Arginine Vasopressin Receptor V2 (AVPR2) (Homo sapiens, UniProt P30518)	≥ 1000 nM
O=C(N1CC2(C1)CN(c1cc(F)ccn1)C2)N1CCOc2cc(Cl)ccc21	human Arginine Vasopressin Receptor V2 (AVPR2) (Homo sapiens, UniProt P30518)	≥ 1000 nM
O=C(N1CC2(C1)CN(c1ncc(F)cn1)C2)N1CCOc2cc(Cl)ccc21	human Arginine Vasopressin Receptor V2 (AVPR2) (Homo sapiens, UniProt P30518)	≥ 1000 nM
Cc1cncc(N2CC3(CN(C(=O)N4CCOc5cc(Cl)ccc54)C3)C2)n1	human Arginine Vasopressin Receptor V2 (AVPR2) (Homo sapiens, UniProt P30518)	≥ 1000 nM
CC1COc2cc(F)c(F)cc2N1C(=O)N1CC2(C1)CN(c1ncccn1)C2 (single isomer, unassigned) [19-1-B]	human Arginine Vasopressin Receptor V2 (AVPR2) (Homo sapiens, UniProt P30518)	≥ 1000 nM
CC1COc2cc(Cl)ccc2N1C(=O)N1CC2(C1)CN(c1noc3cccnc13)C2 (single isomer, unassigned) [18-3-B]	human Arginine Vasopressin Receptor V2 (AVPR2) (Homo sapiens, UniProt P30518)	100 to 500 nM
CC1COc2cc(F)c(F)cc2N1C(=O)N1CC2(C1)CN(c1ncccn1)C2 (stereo not drawn) [19-1]	human Arginine Vasopressin Receptor V2 (AVPR2) (Homo sapiens, UniProt P30518)	≥ 1000 nM
